Tested on: CAKI-1 renal
Assay: NCI-60 one-dose screen, 48 h (100 = growth as untreated, 0 = no growth, -100 = all killed)
Settings: 10 µM unless noted
Compounds without any hit were thinned out: in the full panel of roughly 83,000, 20% have a hit.
measurement-name: growth (%)
Write the value in % as a bare number.

Past entries and their recorded results:
NC(=S)N/N=C/c1ncccc1O 15.1
Nc1cccc2cccc([N+](=O)[O-])c12 107

Prompt: Which value of growth has been reported for O=[n+]1c2ccccc2n([O-])c2cc(Cl)ccc21 in the records?
Response: 19.3

Prompt: Nc1ccc(C(=O)/C=C/c2ccccc2)cc1 ?
Response: 98.5

Prompt: Cc1cc(C(=C2C=CC(=Nc3ccccc3)C=C2)c2ccc(Nc3ccccc3)cc2)ccc1N ?
Response: -56.6

Prompt: C/C(=N/NC(N)=S)c1ccc(C)cc1 ?
Response: 99.8

Prompt: CCOC(=O)NC(/C=C/c1ccccc1)NC(=O)OCC ?
Response: 94.5
